# experimental.protocol: Ratio of drug level in brain to plasma in Sprague-Dawley rat at 3 mg/kg, po after 2 hrs
# Type: ADME, organism-based
# Set-up: dose 3 mg/kg, route oral
# measurement.context: read-out: BPR

smiles	Kp at 2 h
CC(C)(CO)NC(=O)c1nn(-c2ccc(F)cc2F)c2c1C[C@H]1C[C@@H]21	0.356

---

# experimental.protocol: Cmax in Sprague-Dawley rat at 3 mg/kg, po after 0.4 hrs
# Format: ADME, organism-based
# Design: dose 3 mg/kg, route oral
# measurement.context: in vivo

smiles	Cmax (ng/mL)
CC(C)(NC(=O)c1nn(C(C)(C)C)c2c1C[C@H]1C[C@@H]21)c1ccccc1	33
